# System: A498
# Test Protocol: NCI tumour cell line growth inhibition, 48 h
Activity calls are given as the source filed them. Cut-off read from the data, not from the text of the source: active = GI50 up to about 1.1 µM and inactive = higher.
Readout Label: GI50

> print(dat)
                                    compound  readout.label               result
 1  C[C@]12CC[C@H](OC(=O)Cc3ccc(N(CCCl)CCCl)cc3)CC1=CC[C@@H]1[C@@H]2CC[C@]2(C)C(=O)CC[C@@H]12           GI50  > 100 µM (inactive)
 2  CCn1c(SCC(=O)N/N=C/c2ccccc2)nc2ccccc2c1=O           GI50   8.22 µM (inactive)
 3        CCCN1C(=O)CCC2=C1CCc1c2ccc(Cl)c1Cl           GI50     13 µM (inactive)
 4  Oc1nc(CC(O)c2ccc(Cl)c(Cl)c2)cc(-c2ccccc2)n1 (stereo not given)           GI50   32.7 µM (inactive)
 5  COC(=O)[C@]12CC[C@H]3CN(C(=O)OCc4ccccc4)[C@H]([C@H]31)[C@H](c1ccccc1)N2           GI50     80 µM (inactive)
 6  O=P(c1ccccc1)(c1ccccc1)C(NCc1ccccc1)c1ccc(F)cc1 (stereo not given)           GI50   15.2 µM (inactive)
 7  COC1OC(C)C(O)CC1OS(=O)(=O)c1ccc(C)cc1 (stereo not given)           GI50  > 100 µM (inactive)
 8  COC(=O)C(/C(=N/N)C(=O)Nc1cc(Cl)ccc1Cl)c1nc2ccc([N+](=O)[O-])cc2nc1O (stereo not given)           GI50   58.5 µM (inactive)
 9  [N-]=[N+]=CC(=O)CCC(NC(=O)C(CCC(=O)C=[N+]=[N-])NC(=O)CCC(N)C(=O)O)C(=O)O (stereo not given)           GI50  > 100 µM (inactive)
10  CN(C)CCC1(C2=CCCC2)CC/C(=C\c2ccccc2)C1=O (stereo not given)           GI50   15.5 µM (inactive)
11  Cc1ccc2c(c1C)C(=O)/C(=C/c1ccccc1C(=O)O)C2           GI50  > 100 µM (inactive)
12  CC(=O)OCC1OC(Nc2ccc3nc(C)n(-c4ccccc4)c(=O)c3c2)C(OC(C)=O)C(OC(C)=O)C1OC(C)=O (stereo not given)           GI50   > 50 µM (inactive)
13         COc1ccc2c(=O)cc(-c3ccncc3)oc2c1OC           GI50   14.7 µM (inactive)
14   Cc1nc2ccccc2cc1C[N+]12CN3CN(CN(C3)C1)C2           GI50   22.8 µM (inactive)
15  CC(C)[Si]1(C(C)C)OCC2OC(n3ccc(=O)[nH]c3=O)C(O)(CO)C2O[Si](C(C)C)(C(C)C)O1 (stereo not given)           GI50   20.7 µM (inactive)
16  O=C(CC/C(C/C(=N/O)c1ccc(F)cc1)=N/O)N(Cc1ccccc1)Cc1ccccc1           GI50  > 100 µM (inactive)
17  O=C(O)c1cc(/N=N/c2ccc([N+](=O)[O-])cc2)ccc1O           GI50   19.5 µM (inactive)
18  Cc1ccc(N2CN3OC(=O)N(c4ccccc4)[C@@]3(c3ccccc3)C2)cc1           GI50   32.1 µM (inactive)
19      COC1(OC)C(N(C)C)=C(Cl)C(=O)/C1=C/C=O           GI50  > 100 µM (inactive)
20  Cc1n[nH]c(=O)n1/N=C\CC/C=N\n1c(C)n[nH]c1=O           GI50  > 100 µM (inactive)

====

# System: RXF 631
# Test Protocol: NCI tumour cell line growth inhibition, 48 h
Calls of active or inactive are those of the source. Rule as the data show it: active = GI50 up to about 1.1 µM and inactive = higher.
Each item that follows carries a reported GI50.
Readout Label: GI50

> print(dat)
                                   compound  test.target  readout.label               result
1        CC(=O)Nc1cccc2[nH]c3ccccc3c(=O)c12      RXF 631           GI50     27 µM (inactive)
2  O=C1NC(=O)C(C(=O)C(=O)Nc2cc(Cl)ccc2Cl)C(=O)N1      RXF 631           GI50  > 100 µM (inactive)
3  Cc1ccc(S(=O)(=O)NC2(C=O)CCCC3CCCCC32)cc1 (centres undefined)      RXF 631           GI50  > 100 µM (inactive)
4  COc1ccc(NC(=O)CC(=O)N/N=C/c2ccc(N(CCC#N)S(C)(=O)=O)cc2)cc1      RXF 631           GI50  > 100 µM (inactive)

====

# Tested on: NCI-H23
# Test Protocol: NCI tumour cell line growth inhibition, 48 h
The source made the active and inactive calls. Cut-off read from the data, not from the text of the source: active = GI50 up to about 1.1 µM and inactive = higher.
Readout Label: GI50

> print(dat)
                                   compound  readout.label               result
1         CC(=O)n1nnc2ccc([N+](=O)[O-])cc21           GI50  > 100 µM (inactive)
2  Cc1cc(NS(=O)(=O)c2ccc(Nc3c4ccccc4nc4c(C(=O)NCCN(C)C)cccc34)cc2)no1           GI50   4.46 µM (inactive)
3  CC(=O)C1(/N=N/c2ccc(S(N)(=O)=O)cc2)CCOC1=O (stereo not given)           GI50  > 100 µM (inactive)
4  CS/C=C\C(=O)O[C@H]1C[C@@H]2[C@@H](O)c3occ(C)c3C[C@]2(C)[C@@H](C)C1           GI50   30.3 µM (inactive)
5  CC1=NN(c2ccccc2)C(=O)C12[C@H](c1ccccc1)C2(C#N)C#N (stereo not given in full)           GI50   2.85 µM (inactive)

====

# Tested on: CAKI-1
# Test Protocol: NCI tumour cell line growth inhibition, 48 h
Calls of active or inactive are those of the source. Rule as the data show it: active = GI50 up to about 1.1 µM and inactive = higher.
Readout Label: GI50

> print(dat)
                                    compound  readout.label               result
 1            C1CSCCSCCCSCCSCCCSCCSCCCSCCSC1           GI50  > 100 µM (inactive)
 2  Cc1ccc2c(c1C)C(=O)/C(=C/c1ccccc1C(=O)O)C2           GI50  > 100 µM (inactive)
 3  C=C(Cl)C(Br)(CCl)CCC(Br)C(C)(C)Cl (stereo unspecified)           GI50   4.95 µM (inactive)
 4  NC(=O)C(=O)N/N=C(\CC1(O)C(=O)Nc2ccccc21)c1ccc2ccccc2c1 (stereo unspecified)           GI50   35.2 µM (inactive)
 5  COc1ccc(NC(=O)CC(=O)N/N=C/c2ccc(N(CCC#N)S(C)(=O)=O)cc2)cc1           GI50  > 100 µM (inactive)
 6  O=C1NC(N2CCCC(CO)C2)=N/C1=C\c1ccc(O)cc1 (stereo unspecified)           GI50  > 100 µM (inactive)
 7           COc1cc(/C=C\c2cccnc2)cc(OC)c1OC           GI50   44.5 µM (inactive)
 8              COc1cc(/N=C\N(C)C)c2ncccc2c1           GI50   86.3 µM (inactive)
 9        N#CCCOc1cccc(C2(N3CCCCC3)CCCCC2)c1           GI50  > 100 µM (inactive)
10  O=C(O[C@H](/C=C/c1ccccc1)P1(=O)N(Cc2ccccc2)[C@H]2CCCC[C@@H]2N1Cc1ccccc1)c1ccccc1           GI50   2.17 µM (inactive)
11  C=C1c2nc3ccccc3n2C=C(c2ccc(Cl)cc2)N1c1ccc(OC)cc1           GI50   4.58 µM (inactive)

====

# Test system: HOP-62
# Test Protocol: NCI tumour cell line growth inhibition, 48 h
Calls of active or inactive are those of the source. No stated cut-off is given here; in the data, active = GI50 up to about 1.1 µM and inactive = higher.
Labels: Y for active, N for inactive

> print(dat)
                                    compound  class.assignment
 1   CSCCC(NC(=O)OCc1ccccc1)NC(=O)OCc1ccccc1                 N
 2           NCCSc1nc2ccccc2c(=O)n1-c1ccccc1                 N
 3        N#CCCOc1cccc(C2(N3CCCCC3)CCCCC2)c1                 N
 4         COc1ccc2c(=O)cc(-c3ccncc3)oc2c1OC                 N
 5  CCCCCC[N+](C)(C)Cc1ccc(C[N+](C)(C)CCCCCC)cc1                 N
 6  COc1cc(OC)c(-c2cc(=O)c3c(OC)c(OC)c(OC)c(OC)c3o2)cc1OC                 N
 7  CC(C)=CCC/C(C)=C/CC/C(C)=C/CC(CO)N(C)CC/C=C(\C)CCC=C(C)C (configuration not stated)                 N
 8            COC(=O)Cc1cc(=O)oc2c1C(=O)CCC2                 N
 9  C=CCCC(C)N(C(=O)OC(C)(C)C)S(=O)(=O)c1ccc(C)cc1 (configuration not stated)                 N
10  O=C(c1ccccc1)c1c(-c2ccccc2)[nH]n(-c2ccc([N+](=O)[O-])cc2)c(=O)c1=O                 N
11  C[C@]1(CO)[C@H]2CC[C@@]34C=C[C@@](CO)(CC[C@H]3[C@]2(C)CC[C@H]1O)C4                 N
12           COC(=O)/C=C1/OC(c2ccccc2)=CC1=O                 N
13  O=C(O)c1cc(/N=N/c2ccc([N+](=O)[O-])cc2)ccc1O                 N
14  COc1ccc(C2c3cc4c(cc3OC(N3CCOCC3)C2C)OCO4)cc1OC (configuration not stated)                 N
15  Cc1ccc(N2CN3OC(=O)N(c4ccccc4)[C@@]3(c3ccccc3)C2)cc1                 N
16  CC(=O)C1(/N=N/c2ccc(S(N)(=O)=O)cc2)CCOC1=O (configuration not stated)                 N
17               O=c1cnn(C/C=C\CO)c(=O)[nH]1                 N
18  Oc1ccc(-c2nc3ccc4ccccc4c3c3c2CCCC3)c(O)c1                 N
19  Cc1cc(C)c2c(=O)n(CN3CCN(c4ccccc4)CC3)sc2n1                 N
20  COc1ccc2cc(CN3CCC(C4CCN(Cc5ccc6cc(OC)ccc6c5)CC4)CC3)ccc2c1                 N
21   C/C(=N\N=C(/S)N1CCCCCC1)c1cccc[n+]1[O-]                 Y
22            COc1nc(N)c(N=O)c(OCc2ccccc2)n1                 N
